test.method.notes: in vivo
test.context: rat, po, 15 mg/kg
Experimental: Plasma PK of a scyllo-cyclohexanehexyl compound in rats was assessed after 28 days oral dosing of 15, 50 and 150 mg/kg, administered twice daily. […] Indeed, at this dose level, the Vdss, clearance and elimination rates appeared to be reduced with repeated dosing. […] As for single doses, the scyllo-cyclohexanehexyl was absorbed rapidly, with mean tmax observed between 1.2 and 1.3 hours post-dose. […] Estimates of MRT were consistent.
quantity: AUC(0-inf) (µg·h/mL)
Answer in µg·h/mL, number only, no unit symbol.

AUC(0-inf) reported for this molecule OC1C(O)C(O)C(O)C(O)C1O (stereo not shown) : 195

* * *

test.method.notes: clinical
test.context: male, human, in vivo, po, 500 mg
quantity: MRT
Phrase the answer as number then unit, nothing more needed.

Notebook: OC1C(O)C(O)C(O)C(O)C1O (stereo not shown) , MRT read as 19.1 h
